B1: ESRRA (parent)
chain: LGVAQRSLPLQDELAFAEDLVLDE

variants of: B1; experiment: protein stability index of a GFP-peptide fusion (GPS, HEK-293T) (PSI 1-6); higher = more stable; details: c terminus: a fixed tail appended;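 further: lentivirally expressed fusions sorted by FACS into six bins by GFP to DsRed ratio, PSI derived from sequencing read proportions per bin multiplied by bin number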

mutation_key | protein stability index
A4L | 2.42
Q5P | 3.39
D23A | 3.11
